Molecular target: CYP1A2 (Homo sapiens, UniProt P05177)
Sequence (P05177 1-516): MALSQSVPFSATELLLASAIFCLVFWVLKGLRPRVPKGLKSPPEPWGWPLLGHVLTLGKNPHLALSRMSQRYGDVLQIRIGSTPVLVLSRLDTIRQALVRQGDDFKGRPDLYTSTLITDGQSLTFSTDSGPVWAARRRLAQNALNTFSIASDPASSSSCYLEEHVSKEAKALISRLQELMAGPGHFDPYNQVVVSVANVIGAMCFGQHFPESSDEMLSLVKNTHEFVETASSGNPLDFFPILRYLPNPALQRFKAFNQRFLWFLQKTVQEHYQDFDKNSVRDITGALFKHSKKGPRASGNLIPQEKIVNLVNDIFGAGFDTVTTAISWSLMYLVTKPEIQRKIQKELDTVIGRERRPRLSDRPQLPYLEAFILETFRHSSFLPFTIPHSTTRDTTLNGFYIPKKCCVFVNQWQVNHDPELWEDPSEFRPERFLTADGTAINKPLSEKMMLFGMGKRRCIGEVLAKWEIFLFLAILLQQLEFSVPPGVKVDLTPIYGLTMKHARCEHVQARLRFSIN
Assay: biochemical
PARAMETER: pIC50
Give bare numbers, as −log10 of the molar value.

Task: I'd like to know its pIC50. The compound in question is CC(=O)CC(c1ccccc1)c1c(O)c2ccccc2oc1=O (racemic) [WAR, warfarin]
Result: 3.13
